assay: Cmax in rat at 5 mg/kg, po; assay type: ADME, organism-based; parameters: dose 5 mg/kg, route oral; details: in vivo
Binary classification by Cmax, with 1000 nM as an inclusive lower bound for true; all other cases are false.

Previously resolved entries follow.
# chem smiles, category label
measured = [
    ("Cc1ccn(-c2ncc(F)c3c(C(=O)C(=O)N4CCN(C(=O)c5ccccc5)CC4)c[nH]c23)n1", "false"),
    ("O=C(C(=O)N1CCN(C(=O)c2ccccc2)CC1)c1c[nH]c2c(-n3ccnn3)ncc(F)c12", "true"),
    ("CNC(=O)c1ncc(F)c2c(C(=O)C(=O)N3CCN(C(=O)c4ccccc4)CC3)c[nH]c12", "false"),
    ("NC(=O)c1ncc(F)c2c(C(=O)C(=O)N3CCN(C(=O)c4ccccc4)CC3)c[nH]c12", "false"),
    ("COc1ncc(OC)c2c(C(=O)C(=O)N3CCN(C(=O)c4ccccc4)CC3)c[nH]c12", "true"),
]

Problem: Has "O=C(C(=O)N1CCN(C(=O)c2ccccc2)CC1)c1c[nH]c2c(-n3cncn3)ncc(F)c12" a recorded Cmax greater than or equal to 1000 nM?
Solution: true

Problem: Has "O=C(C(=O)N1CCN(C(=O)c2ccccc2)CC1)c1c[nH]c2c(-c3cnco3)ncc(F)c12" a recorded Cmax greater than or equal to 1000 nM?
Solution: true

Problem: Has "O=C(C(=O)N1CCN(C(=O)c2ccccc2)CC1)c1c[nH]c2c(-c3cc[nH]n3)ncc(F)c12" a recorded Cmax greater than or equal to 1000 nM?
Solution: true

----------
tested on: Rattus norvegicus; assay: AUC in rat at 5 mg/kg, po at 24 hrs; type: ADME, organism-based, Plasma; design: time < 24 hr, dose 5 mg/kg, route oral; details: in vivo, 24 h
test readout: AUC (µM·h)
# unit: µM·h | format: bare number

Worked examples follow.
# chem smiles, result units, AUC
data = [
    ("NC(=O)c1ncc(F)c2c(C(=O)C(=O)N3CCN(C(=O)c4ccccc4)CC3)c[nH]c12", "µM·h", 2.6),
    ("O=C(C(=O)N1CCN(C(=O)c2ccccc2)CC1)c1c[nH]c2c(-c3cc[nH]n3)ncc(F)c12", "µM·h", 12.5),
    ("Cc1ccn(-c2ncc(F)c3c(C(=O)C(=O)N4CCN(C(=O)c5ccccc5)CC4)c[nH]c23)n1", "µM·h", 2.1),
    ("CNC(=O)c1ncc(F)c2c(C(=O)C(=O)N3CCN(C(=O)c4ccccc4)CC3)c[nH]c12", "µM·h", 1.5),
]

Now let's try a different one.
Problem: // lookup AUC for "Cc1ncn(-c2ncc(F)c3c(C(=O)C(=O)N4CCN(C(=O)c5ccccc5)CC4)c[nH]c23)n1"
Solution: 160

----------
assay: Volume of distribution at steady state in iv dosed rat; type: ADME, organism-based; details: in vivo, read-out: Vdss
Labelling: Vd reported below 0.2 L/kg becomes Y; at or above becomes N.

# chem smiles, category label
rows = [
    ("CNC(=O)c1ncc(F)c2c(C(=O)C(=O)N3CCN(C(=O)c4ccccc4)CC3)c[nH]c12", "N"),
    ("O=C(C(=O)N1CCN(C(=O)c2ccccc2)CC1)c1c[nH]c2c(-c3cc[nH]n3)ncc(F)c12", "N"),
]

Problem: Take the compound "O=C(C(=O)N1CCN(C(=O)c2ccccc2)CC1)c1c[nH]c2c(-n3cncn3)ncc(F)c12" and say whether its Vd is less than 0.2 L/kg.
Solution: N

Problem: Take the compound "Cc1ccn(-c2ncc(F)c3c(C(=O)C(=O)N4CCN(C(=O)c5ccccc5)CC4)c[nH]c23)n1" and say whether its Vd is less than 0.2 L/kg.
Solution: N

Problem: Take the compound "O=C(C(=O)N1CCN(C(=O)c2ccccc2)CC1)c1c[nH]c2c(-c3cnco3)ncc(F)c12" and say whether its Vd is less than 0.2 L/kg.
Solution: Y

Problem: Take the compound "Cc1ncn(-c2ncc(F)c3c(C(=O)C(=O)N4CCN(C(=O)c5ccccc5)CC4)c[nH]c23)n1" and say whether its Vd is less than 0.2 L/kg.
Solution: Y

Problem: Take the compound "NC(=O)c1ncc(F)c2c(C(=O)C(=O)N3CCN(C(=O)c4ccccc4)CC3)c[nH]c12" and say whether its Vd is less than 0.2 L/kg.
Solution: N

Problem: Take the compound "COc1ncc(OC)c2c(C(=O)C(=O)N3CCN(C(=O)c4ccccc4)CC3)c[nH]c12" and say whether its Vd is less than 0.2 L/kg.
Solution: N

----------
The following molecules are shown together with reported CLint scaled values.
assay: Clearance in human liver microsomes; type: ADME, Microsome; details: read-out: CLH

# chem smiles, experimental value
records = [
    ("Cc1ccn(-c2ncc(F)c3c(C(=O)C(=O)N4CCN(C(=O)c5ccccc5)CC4)c[nH]c23)n1", "< 1.26 L/h/kg"),
    ("NC(=O)c1cc(-c2ncc(F)c3c(C(=O)C(=O)N4CCN(C(=O)c5ccccc5)CC4)c[nH]c23)n[nH]1", "≤ 1.74 L/h/kg"),
    ("O=C(C(=O)N1CCN(C(=O)c2ccccc2)CC1)c1c[nH]c2c(-c3cnccn3)ncc(F)c12", "≤ 1.74 L/h/kg"),
    ("O=C(C(=O)N1CCN(C(=O)c2ccccc2)CC1)c1c[nH]c2c(-n3ccnn3)ncc(F)c12", "< 1.26 L/h/kg"),
]

Problem: // lookup CLint scaled for "CNC(=O)c1ncc(F)c2c(C(=O)C(=O)N3CCN(C(=O)c4ccccc4)CC3)c[nH]c12"
Solution: < 1.26 L/h/kg

----------
assay: Oral bioavailability in human at 200 mg administered as capsule formulation; type: ADME, organism-based; details: in vivo
test readout: bioavailability (%)
# unit: % | format: bare number

Problem: // lookup bioavailability for "O=C(C(=O)N1CCN(C(=O)c2ccccc2)CC1)c1c[nH]c2c(-n3ccnn3)ncc(F)c12"
Solution: 30

----------
assay: Oral bioavailability in rat at 5 mg/kg; type: ADME, organism-based; conditions: in vivo
test readout: bioavailability (%)
# unit: % | format: bare number

# chem smiles, result units, bioavailability
measured = [
    ("O=C(C(=O)N1CCN(C(=O)c2ccccc2)CC1)c1c[nH]c2c(-c3cnco3)ncc(F)c12", "%", 20),
]

Now let's try a different one.
Problem: // lookup bioavailability for "O=C(C(=O)N1CCN(C(=O)c2ccccc2)CC1)c1c[nH]c2c(-n3ccnn3)ncc(F)c12"
Solution: 64

----------
assay: Clearance in human liver microsomes; assay type: ADME, Microsome; settings: read-out: CLH
test readout: CLint scaled

# chem smiles, experimental value
records = [
    ("CN(C)C(=O)c1cc(-c2ncc(F)c3c(C(=O)C(=O)N4CCN(C(=O)c5ccccc5)CC4)c[nH]c23)n[nH]1", "< 21 mL/min/kg"),
    ("NC(=O)c1ncc(F)c2c(C(=O)C(=O)N3CCN(C(=O)c4ccccc4)CC3)c[nH]c12", "< 21 mL/min/kg"),
    ("O=C(C(=O)N1CCN(C(=O)c2ccccc2)CC1)c1c[nH]c2c(-c3cc[nH]n3)ncc(F)c12", "< 21 mL/min/kg"),
]

Now let's try a different one.
Problem: // lookup CLint scaled for "Cc1ncn(-c2ncc(F)c3c(C(=O)C(=O)N4CCN(C(=O)c5ccccc5)CC4)c[nH]c23)n1"
Solution: < 21 mL/min/kg

----------
assay: Clearance in human liver microsomes; type: ADME, Microsome; conditions: read-out: CLH
The following compounds are shown together with reported CLint scaled values.

# chem smiles, experimental value
measured = [
    ("CNC(=O)c1cc(-c2ncc(F)c3c(C(=O)C(=O)N4CCN(C(=O)c5ccccc5)CC4)c[nH]c23)n[nH]1", "≤ 29 mL/min/kg"),
    ("O=C(C(=O)N1CCN(C(=O)c2ccccc2)CC1)c1c[nH]c2c(-n3cncn3)ncc(F)c12", "< 21 mL/min/kg"),
    ("O=C(C(=O)N1CCN(C(=O)c2ccccc2)CC1)c1c[nH]c2c(-c3cnco3)ncc(F)c12", "< 21 mL/min/kg"),
]

Now let's try a different one.
Problem: // lookup CLint scaled for "O=C(NCCN1CCOCC1)c1cc(-c2ncc(F)c3c(C(=O)C(=O)N4CCN(C(=O)c5ccccc5)CC4)c[nH]c23)n[nH]1"
Solution: > 29 mL/min/kg
